These data points were gathered from ChEMBL document CHEMBL3137381.

Test system: Onchocerca lienalis
Experiment: MMV: Percent motility assay at a compound concentration of 1.9e-7 M. Activity score legend: 3: Active, 2: Moderately active; 1: Inactive, 0: Toxic
Type: functional
Settings: at 0.19 µM
OBSERVED PROPERTY: Motility

COMPOUND	Motility
CCC(C)NCC(O)(c1ccc(Cl)cc1)c1ccc(Cl)cc1 (configuration not stated)	100%
CCOC(=O)C1=CN(C)C=C(C(=O)OCC)C1c1cc(Br)c(OCC)c(OC)c1	100%
COc1ccc(-n2ccnc2SCC(=O)Nc2cc(C)ccc2C)c(OC)c1	100%
CCN(CC)CCNc1ccnc2cc3ccccc3cc12.O=P(O)(O)O	100%
COc1ccc2nc(C)cc(Nc3cccc(O)c3)c2c1.Cl	100%
CCOc1ccccc1NC(=O)CN1CCN(C(=O)c2ccco2)CC1	100%

The record that follows has no Motility shown yet.
Query: Please look up its Motility: OC(CNCC1CCCO1)Cn1c2ccc(Cl)cc2c2cc(Cl)ccc21 (configuration not stated)
Reply: 100%

----------
Listed here: items and their measured Motility.
Tested on: Onchocerca lienalis
Experiment: MMV: Percent motility assay at a compound concentration of 7.8e-7 M. Activity score legend: 3: Active, 2: Moderately active; 1: Inactive, 0: Toxic
Format: functional
Details: at 0.78 µM
I'd appreciate it if you included the unit after the number.

MOLECULE	TARGET OF ASSAY	Motility
CC(C)c1ccc(CNCC(O)c2ccccc2)cc1.Cl (stereo unspecified)	Onchocerca lienalis	100%
COc1ccc(C=C2SC(Nc3ccc(F)cc3)=NC2=O)c(OC)c1	Onchocerca lienalis	100%
Cc1cc(Nc2cccc(F)c2)nc(NCc2ccccc2)n1	Onchocerca lienalis	100%
Cc1ccc(NC(=O)Nc2cccc(Cl)c2)cc1F	Onchocerca lienalis	100%
COc1ccc2sc(N(Cc3cccnc3)C(=O)c3ccc(C#N)cc3)nc2c1	Onchocerca lienalis	100%
COc1ccc2c(c1OC)C(=O)N1c3ccccc3N=C(c3ccc(C)cc3)CC21 (stereo unspecified)	Onchocerca lienalis	100%
CC(C)CCNCC(O)Cn1c2ccccc2c2ccccc21.Cl (stereo unspecified)	Onchocerca lienalis	100%
COc1ccc2nc(C)cc(Nc3ccc(Cl)cc3)c2c1	Onchocerca lienalis	100%
COc1cccc(NC(=O)[C@H](C(C)C)n2c(=O)[nH]c3ccccc3c2=O)c1	Onchocerca lienalis	100%
CC(=O)c1sc(NC(=O)Nc2ccc(C)cc2C)nc1C	Onchocerca lienalis	100%

The record that follows has no Motility shown yet.
Query: Please look up its Motility: Cc1ccc(S(=O)(=O)c2c(COC(=O)c3cccc(C)c3)c(-c3ccccc3)nn2C)cc1
Reply: 100%

----------
Test system: Onchocerca lienalis
Experiment: MMV: Percent motility assay at a compound concentration of 7.8e-7 M. Activity score legend: 3: Active, 2: Moderately active; 1: Inactive, 0: Toxic
Type: functional
Conditions: at 0.78 µM
Listed here: items and their measured Motility.
Reply numerically in %, unit not repeated.

Query: Form field: Motility recorded for COc1cc(SC)ccc1C(=O)N1CCCC(C)C1 (stereo unspecified) with Onchocerca lienalis (enter value)
Reply: 100

Query: Try the compound CCOc1ccc(-n2cc(-c3ccccc3)c3c(SCc4cc(C)ccc4C)ncnc32)cc1
Reply: 100

----------
Tested on: Onchocerca lienalis
Assay: MMV: Percent motility assay at a compound concentration of 1.9e-7 M. Activity score legend: 3: Active, 2: Moderately active; 1: Inactive, 0: Toxic
Format: functional
Conditions: at 0.19 µM
OBSERVED PROPERTY: Motility (%)
Reply numerically in %, unit not repeated.

Recorded Motility, per entry:
MOLECULE	UNIT	Motility
COc1cc(-c2nc(-c3ccccc3)c(-c3ccccc3)[nH]2)cc(OC)c1O	%	100
O=C(NNc1cc(N2CCCC2)nc(N2CCCC2)n1)c1ccccc1	%	100
O=c1c2c([nH]c3ccccc13)CCCC2	%	100
O=C(CCc1ccccc1)c1ccccc1OCC(O)CN1CCCCC1 (stereo unspecified)	%	100
CCc1ccc(CNCC(O)c2ccccc2)cc1.Cl (stereo unspecified)	%	100

The record that follows has no Motility shown yet.
Query: Please look up its Motility: CCOc1cc(CNC(C)C(O)c2ccccc2)cc(Cl)c1OCC (stereo unspecified)
Reply: 100

----------
System: Onchocerca lienalis
Assay: MMV: Percent motility assay at a compound concentration of 1.9e-7 M. Activity score legend: 3: Active, 2: Moderately active; 1: Inactive, 0: Toxic
Assay type: functional
Conditions: at 0.19 µM
Listed here: items and their measured Motility.
Reply numerically in %, unit not repeated.

Recorded Motility, per entry:
MOLECULE	READOUT VALUE
Cc1cc(N(C)C)nc(Nc2ccc(NC(=O)Nc3ccccc3)cc2)n1	100
O=C(NC1CCCC1)c1ccc(N2CCC(NCc3cccc(C(F)(F)F)c3)CC2)cc1	100
OC(CNC1CCCCC1)Cn1c2ccccc2c2ccccc21 (stereo not given)	100
COCCn1c(C)nc2ccccc2c1=O	100

Query: Please look up its Motility: CC(O)(c1ccc(Cl)cc1)C(CN1CCCCC1)c1ccccc1.Cl (stereo not given)
Reply: 100

Query: Try the molecule COc1ccc(CNC(=O)c2cc3c(=O)n4ccccc4nc3n(CCc3ccccc3)c2=N)cc1
Reply: 100

Query: Try the molecule COc1ccc(-c2nc(NC(=O)CS(=O)(=O)c3ccc(F)cc3)sc2C)cc1
Reply: 100

Query: Try the molecule CN1CCN(c2c3c(c(C#N)c4nc5ccccc5n24)CCC3)CC1
Reply: 100

Query: Try the molecule COc1ccc(CN2CCN(Cc3ccccc3)CC2)c(O)c1
Reply: 100

Query: Try the molecule Nc1ccn([C@@H]2O[C@H](CO)[C@@H](O)[C@H]2O)c(=O)n1
Reply: 100

Query: Try the molecule Cc1ccc(C(=O)c2oc3ccc4c(C)cc(=O)oc4c3c2C)cc1
Reply: 100

Query: Try the molecule CCOc1ccc2nc(C)cc(Nc3ccc(N(C)C)cc3)c2c1.Cl
Reply: 100

----------
Listed here: items and their measured Motility.
System: Onchocerca lienalis
Assay: MMV: Percent motility assay at a compound concentration of 7.8e-7 M. Activity score legend: 3: Active, 2: Moderately active; 1: Inactive, 0: Toxic
Assay type: functional
Conditions: at 0.78 µM
Reply numerically in %, unit not repeated.

Recorded Motility, per entry:
MOLECULE	Motility (%)
COc1cccc(NC(=O)Cn2c(C)c(C#N)c3ccccc32)c1	100
O=C(NCC(c1ccsc1)N1CCCCCC1)c1ccc(C(F)(F)F)cc1 (stereo not given)	100

Query: Please look up its Motility: Cc1ccccc1OCCSc1nc2ccc(NC(=O)c3ccccc3)cc2s1
Reply: 100

Query: Try the molecule CCCN(CCC)CC(O)COc1ccccc1C(=O)Nc1ccccc1 (stereo not given)
Reply: 100

Query: Try the molecule COc1ccc(-c2nonc2NC(=O)c2cccc(C)c2)cc1OC
Reply: 100

Query: Try the molecule CCOc1cc(Cl)c(C(C)NC(=O)c2ccccc2)cc1OCC (stereo not given)
Reply: 100
